Values were extracted from patent US20060257322A1.

system: A549 lung tumors; assay type: in vivo, hairless mice; conditions: Day 20; 18 μmol of epothilone/kg of body weight i.v. (formulations: plus 100 μmol of Gd/kg); day 0 normalized to 1

| compound | target-or-test-system | Relative tumor surface area |
| --- | --- | --- |
| Cc1nc(/C=C(\Cl)[C@@H]2C[C@@H]3O[C@]3(C)CCC[C@H](C)[C@H](O)[C@@H](C)C(=O)C(C)(C)[C@@H](O)CC(=O)O2)cs1 [Epothilone C] | A549 lung tumors | 1.5 ± 0.2 |
| C=CC[C@H]1C(=O)C(C)(C)[C@@H](O)CC(=O)O[C@H](c2ccc3sc(C)nc3c2)C[C@@H]2O[C@]2(C)CCC[C@H](C)[C@@H]1O [Epothilone F] | A549 lung tumors | 1.5 ± 0.2 |
| CC[C@H]1C(=O)C(C)(C)[C@@H](O)CC(=O)O[C@H](/C(F)=C/c2ccccn2)C/C=C(/C)CCC[C@H](C)[C@@H]1O [Epothilone G] | A549 lung tumors | 1.6 ± 0.2 |
| C#CC[C@H]1C(=O)C(C)(C)[C@@H](O)CC(=O)O[C@H](/C(F)=C/c2csc(C)n2)C/C=C(/C)CCC[C@H](C)[C@@H]1O [Epothilone L] | A549 lung tumors | 1.5 ± 0.1 |
